Experiment: NCI Yeast Anticancer Drug Screen. Data for the cln2 rad14 strain (AID 165);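 note: 0% = growth equal to vehicle treated cultures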
Conditions: S. cerevisiae cln2 rad14 strain, at 50.0 µM
The panel holds about 79,000 compounds, 15% with a hit somewhere; the sample as a whole holds those more often. Active and inactive are the calls of the source. Cut-off read from the data, not from the text of the source: active = growth inhibition above about 70%; inactive = the rest.
Parameter call: string, one of active, inactive

See these solved cases before continuing.
{"compound": "CC1=NOC(=O)/C1=C/c1ccc2c(c1)OCO2", "class label": "inactive"}
{"compound": "COc1cc(/C=C2\\NC(=O)N(/C=C3\\C(=O)Oc4ccccc4C3=O)C2=O)ccc1O", "class label": "active"}

Shifting focus to the compound that follows.
Which outcome was assigned to Nc1nc(N)c2nc(CNc3ccc(C(=O)NC(CCC(=O)O)C(=O)O)cc3F)cnc2n1 (stereo not drawn) in this test? inactive

* * *

Recorded growth inhibition by entry
Experiment: NCI Yeast Anticancer Drug Screen. Data for the cln2 rad14 strain (AID 165);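 note: 0% = growth equal to vehicle treated cultures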
Conditions: S. cerevisiae cln2 rad14 strain, at 50.0 µM (retest, dose inferred, filed as 5.0), stronger effect = higher value
The panel holds about 79,000 compounds, 15% with a hit somewhere; the sample as a whole holds those more often.
Use % as the unit, but write only the number.

Please review the entries below; each comes with its answer.
{"compound": "Cc1ccc(NC(=O)/C(CC2N=c3c(ccc4c(O)c5ccccc5c(O)c34)=NC2O)=N/NC(C)(C)C)cc1 (stereo unspecified)", "growth inhibition [%]": -3}
{"compound": "CC12C(=O)OC(=O)C(c3ccccc31)c1ccccc12", "growth inhibition [%]": 5}
{"compound": "CCOC(=O)C(Br)C(Br)c1ccccc1Cl (stereo unspecified)", "growth inhibition [%]": 99}

# input compound: `O=C(Oc1ccc2c(c1)CN(Cc1ccccc1)CO2)c1ccccc1` ; wanted: its growth inhibition 39

# input compound: `O=[N+]([O-])c1cc(F)c(F)cc1Sc1cc(F)c(F)cc1[N+](=O)[O-]` ; wanted: its growth inhibition 97

What value of growth inhibition has been recorded for this entry: `NC(=O)C(=O)NNc1ccccc1` 32

Param item = `c1ccc(Cc2cc(-c3ccccc3)n[nH]2)cc1` ; retrieve measured growth inhibition. -13

Requested read-out: growth inhibition. Entry: COC(=O)CC1CCc2c(ccc3ccccc23)C1(C)C(=O)OC (stereo unspecified) 11

For the compound shown here, CC(NCCN(C)C)C1CCC2C3CCc4cc(O)ccc4C3CCC12C (stereo unspecified) , give the reported growth inhibition. 29

Requested field: growth inhibition. Item: `CN(C)Cc1cc(N=Nc2ccc(Cl)cc2)ccc1OC(=O)c1ccccc1` 51

If you can, please state the reported growth inhibition value of CC(C)CCCC(C)C1CCC2C3CCC4=CC(=O)/C(=C\O)CC4(C)C3CCC12C (stereo unspecified) . 26

* * *

Assay: NCI Yeast Anticancer Drug Screen. Data for the rad50 strain (AID 155);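 note: 0% = growth of vehicle-only cultures of the same strain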
Conditions: S. cerevisiae rad50 strain growth inhibition; at 5.0 µM (retest, dose inferred, filed as 0.5)
This is part of a sample that, as a whole, favours compounds with a hit. Of some 79,000 tested, about 15% had one in any assay. Calls of active or inactive are those of the source. Rule as the data show it: active = growth inhibition above about 70%; inactive = the rest.
Valid outcomes are listed here; reply with one: True for active, False for inactive

# count of solved cases: 5
{"compound": "Cc1ccc(S/C(=C\\C(=O)O)c2ccccc2)cc1", "class label": "False"}
{"compound": "c1ccc2cc(NCNc3ccc4ccccc4c3)ccc2c1", "class label": "False"}
{"compound": "CC(C)(C)c1ccc(NS(=O)(=O)c2ccc(N)cc2)cc1", "class label": "False"}
{"compound": "COC(=O)CCC(NC(=S)N/N=C(\\C)c1ccccn1)C(=O)OC (stereo not drawn)", "class label": "False"}
{"compound": "CCOc1ccc(NC(=O)C2=C(C)NC(C)=C(C(=O)Nc3ccc(OCC)cc3)C2c2cccc([N+](=O)[O-])c2)cc1", "class label": "False"}

What outcome does the record of this test show for `CCO/C(C)=C(/C#N)C(N)=S` ? False

Any idea what this test logged for CC(=O)OC1CC2C(C)(C)C(=O)C=C[C@]2(C)C2CCC3(C)C(=CCC3[C@H](CO)C[C@H](O)C(=O)C(C)(C)O)[C@]12C (stereo partly drawn) ? False

Tell me the recorded outcome of this test for `CN(C)c1nc(=Nc2cccc(Cl)c2)ss1` . True

Please indicate how the test categorized CCOC(=O)C(Br)C(Br)c1ccccc1Cl (stereo not drawn) . False

For O=C1C=C(c2ccccc2)OC1(c1ccccc1)N1CCOCC1 (stereo not drawn) , which call appears in the assay record? False

I would be grateful if you could indicate the recorded call for `CCN(CC)CCOc1cc(C)c2cc(Cc3ccccc3)ccc2n1` . False

Per the records of this test, what outcome belongs to Cc1cccc[n+]1C1CCc2c(ccc3ccccc23)C1=O (stereo not drawn) ? False

Could you please tell me the result logged for `CCOC(=O)c1cc([N+](=O)[O-])c(Sc2ncnc3nc[nH]c23)c([N+](=O)[O-])c1` in this assay? False
